PROTOCOL_NOTES: NCI Yeast Anticancer Drug Screen. Data for the mlh1 rad18 strain (AID 175)
STATED_CONDITIONS: S. cerevisiae mlh1 rad18 strain growth inhibition; at 50.0 µM; stronger effect = higher value
The panel holds about 79,000 compounds, 15% with a hit somewhere; the sample as a whole holds those more often.
# reported growth inhibition; entries follow

>  <COMPOUND>
CCOC(=O)C1C(c2ccc(Cl)cc2Cl)NC(c2ccc(C)cc2)C(C(=O)OC)S1(=O)=O (stereo not drawn)

>  <UNIT_LABEL>
%

>  <growth inhibition>
27.1

$$$$
>  <COMPOUND>
O=CC1N=C(Cc2ccccc2)OC1=O (stereo not drawn)

>  <UNIT_LABEL>
%

>  <growth inhibition>
8.2

$$$$
>  <COMPOUND>
CCOC(=O)NNC(=O)NC12CC3CC(CC(C3)C1)C2

>  <UNIT_LABEL>
%

>  <growth inhibition>
1.75

$$$$
>  <COMPOUND>
Nc1nc(N)c(-c2ccccc2)c(CCC(=O)Nc2ccc(Cl)cc2)n1

>  <UNIT_LABEL>
%

>  <growth inhibition>
7.8

$$$$
>  <COMPOUND>
c1ccc2nc(N3CCCC3)c(N3CCCC3)nc2c1

>  <UNIT_LABEL>
%

>  <growth inhibition>
-4.85

$$$$
>  <COMPOUND>
C1CCN(c2nn[nH]n2)CC1

>  <UNIT_LABEL>
%

>  <growth inhibition>
0.4

$$$$
>  <COMPOUND>
O=C(c1ccc(O)c(C(=O)O)c1)c1ccc(O)c(C(=O)O)c1

>  <UNIT_LABEL>
%

>  <growth inhibition>
-2.85

$$$$
>  <COMPOUND>
CNC(=S)NNC1=NCCCCN1

>  <UNIT_LABEL>
%

>  <growth inhibition>
-16.1

$$$$
>  <COMPOUND>
O=C(Nc1ccccc1)NC1CCCC1

>  <UNIT_LABEL>
%

>  <growth inhibition>
-1.2

$$$$
>  <COMPOUND>
COc1ccc(C2(c3ccc(OC)cc3)c3ccccc3Cc3c(OC)cccc32)cc1

>  <UNIT_LABEL>
%

>  <growth inhibition>
6.4

$$$$
>  <COMPOUND>
Oc1cc(CN2CCOCC2)c(O)c(CN2CCOCC2)c1CN1CCOCC1

>  <UNIT_LABEL>
%

>  <growth inhibition>
-3.3

$$$$
>  <COMPOUND>
O=C(O)CCC(NC(=O)c1ccc(Nc2nc3ccc(C(F)(F)F)cc3nc2-c2ccccc2)cc1)C(=O)O (stereo not drawn)

>  <UNIT_LABEL>
%

>  <growth inhibition>
-0.05

$$$$
>  <COMPOUND>
CC(N)C(O)C(C)C(=O)O (stereo not drawn)

>  <UNIT_LABEL>
%

>  <growth inhibition>
7.35

$$$$
>  <COMPOUND>
CNC(=O)OCc1c(COC(=O)NC)c(-c2ccc(S(C)(=O)=O)cc2)n(C)c1C

>  <UNIT_LABEL>
%

>  <growth inhibition>
-42

$$$$
>  <COMPOUND>
c1ccc(CCCC2Sc3cccc4cccc(c34)S2)cc1

>  <UNIT_LABEL>
%

>  <growth inhibition>
-28.5

$$$$
>  <COMPOUND>
CCOC(=O)c1ccc(NC(=O)Nc2ccc(F)c([N+](=O)[O-])c2)cc1

>  <UNIT_LABEL>
%

>  <growth inhibition>
23.6

$$$$
>  <COMPOUND>
O=C1CC[C@@H](C(=O)Nc2cccc3ccccc23)N1

>  <UNIT_LABEL>
%

>  <growth inhibition>
21.2

$$$$
>  <COMPOUND>
Cc1ccc(Cl)cc1NC(=O)Oc1ccccc1C(=O)OCc1ccccc1

>  <UNIT_LABEL>
%

>  <growth inhibition>
19.9

$$$$
>  <COMPOUND>
CCCCCCCCSc1nc2ccc(N=Cc3ccccc3O)cc2s1

>  <UNIT_LABEL>
%

>  <growth inhibition>
36.1

$$$$
>  <COMPOUND>
CC1CCC(CC(N)=O)C1(C)C (stereo not drawn)

>  <UNIT_LABEL>
%

>  <growth inhibition>
0.35

$$$$
>  <COMPOUND>
C=CCN1CC2CON(C(=O)C(OC)(c3ccccc3)C(F)(F)F)C2C1C(C)C (stereo not drawn)

>  <UNIT_LABEL>
%

>  <growth inhibition>
-5.85

$$$$
>  <COMPOUND>
CCCc1c(O)c2ccccc2[nH]c1=O

>  <UNIT_LABEL>
%

>  <growth inhibition>
-8.3

$$$$
>  <COMPOUND>
O=C1COCCO1

>  <UNIT_LABEL>
%

>  <growth inhibition>
-19.5

$$$$
>  <COMPOUND>
Cc1nc(C)c(Cc2ccccc2)o1

>  <UNIT_LABEL>
%

>  <growth inhibition>
30.7

$$$$
>  <COMPOUND>
COc1ccc(C(=O)C(C)(c2nc3n(c2O)C(=N)N=N3)c2nc3n(c2O)C(=N)N=N3)cc1 (stereo not drawn)

>  <UNIT_LABEL>
%

>  <growth inhibition>
-7.95

$$$$
>  <COMPOUND>
NC(=O)C1N=NSC1NC(=O)c1ccc([N+](=O)[O-])cc1 (stereo not drawn)

>  <UNIT_LABEL>
%

>  <growth inhibition>
5.45

$$$$
>  <COMPOUND>
CNc1cc2oc(=O)cc(C)c2cc1C

>  <UNIT_LABEL>
%

>  <growth inhibition>
10.4

$$$$
>  <COMPOUND>
O=C1c2ccccc2C(=O)N1C[P+](c1ccccc1)(c1ccccc1)c1ccccc1

>  <UNIT_LABEL>
%

>  <growth inhibition>
12.4

$$$$
>  <COMPOUND>
N#Cc1c(-c2ccccc2)c(C#N)c(=O)n(N)c1N

>  <UNIT_LABEL>
%

>  <growth inhibition>
16.9

$$$$
>  <COMPOUND>
CCCCCN(CCCCC)C(=O)C(C)C

>  <UNIT_LABEL>
%

>  <growth inhibition>
5.8

$$$$
>  <COMPOUND>
CC(=O)OC1C(NC(=O)OCc2ccccc2)CC(NC(=O)OCc2ccccc2)C(O)C1O (stereo not drawn)

>  <UNIT_LABEL>
%

>  <growth inhibition>
4.9

$$$$
>  <COMPOUND>
CC(=O)Oc1cc(OC(C)=O)c(OC(C)=O)c2c1CCCC2

>  <UNIT_LABEL>
%

>  <growth inhibition>
56.7

$$$$
>  <COMPOUND>
Cc1ccc(CNC(=O)NCCCCCCNC(=O)NCc2ccc(C)cc2)cc1

>  <UNIT_LABEL>
%

>  <growth inhibition>
-1.1

$$$$
>  <COMPOUND>
CCOC(=O)CC(=O)c1cc(OC)c(OC)c(OC)c1

>  <UNIT_LABEL>
%

>  <growth inhibition>
20.4

$$$$
>  <COMPOUND>
CCC(C)OC(=S)S.[Ag] (stereo not drawn)

>  <UNIT_LABEL>
%

>  <growth inhibition>
10.7

$$$$
>  <COMPOUND>
CC1=CCC(CC(=O)O)C1(C)C (stereo not drawn)

>  <UNIT_LABEL>
%

>  <growth inhibition>
-5

$$$$
>  <COMPOUND>
Nc1nc2cc(COc3ccc(C(=O)O)cc3)ccc2nc1-c1ccccc1

>  <UNIT_LABEL>
%

>  <growth inhibition>
-15.1

$$$$
>  <COMPOUND>
CCCCCC(=O)OCC(Br)CBr (stereo not drawn)

>  <UNIT_LABEL>
%

>  <growth inhibition>
1.1

$$$$
>  <COMPOUND>
CCCC(=O)c1cc(-c2cc(C(=O)CCC)nc(N)n2)nc(N)n1

>  <UNIT_LABEL>
%

>  <growth inhibition>
-0.4

$$$$
>  <COMPOUND>
CCCC(O)CO (stereo not drawn)

>  <UNIT_LABEL>
%

>  <growth inhibition>
40.2

$$$$
>  <COMPOUND>
C=C(Br)CN(C(C)=O)C1CCCCC1

>  <UNIT_LABEL>
%

>  <growth inhibition>
26.8

$$$$
>  <COMPOUND>
O=C(N/N=C\c1ccc2c(c1)OCO2)c1ccc2c(c1)OCO2

>  <UNIT_LABEL>
%

>  <growth inhibition>
0.55

$$$$
>  <COMPOUND>
C1=C(c2ccccc2)c2ccccc2/C1=N/Nc1ccccc1

>  <UNIT_LABEL>
%

>  <growth inhibition>
5

$$$$
>  <COMPOUND>
CC1=NN(C(=O)Cc2ccccc2)C(=O)/C1=C\c1ccco1

>  <UNIT_LABEL>
%

>  <growth inhibition>
-55.9

$$$$
>  <COMPOUND>
O=[N+]([O-])c1ccc(C2SCc3nc4ccccc4n32)cc1 (stereo not drawn)

>  <UNIT_LABEL>
%

>  <growth inhibition>
-2.65

$$$$
>  <COMPOUND>
Cc1nc2c(sc3ccccc3n2C)c2nc3c(sc4ccccc4n3C)c(C)c12

>  <UNIT_LABEL>
%

>  <growth inhibition>
15.1

$$$$
>  <COMPOUND>
CC1(C)C(=O)CC[C@]2(C)[C@H]3C(=O)C=C4[C@H]5C[C@@](C)(C(=O)O)CC[C@]5(C)CC[C@@]4(C)[C@]3(C)CC[C@@H]12

>  <UNIT_LABEL>
%

>  <growth inhibition>
-0.95

$$$$
>  <COMPOUND>
ClC1=CC(Cl)=C2N=C(N3CCCC3)N=C3N=C(C(Cl)(Cl)Cl)N=C1N32

>  <UNIT_LABEL>
%

>  <growth inhibition>
-20.4

$$$$
